Values compiled from paper PMC3759356.

- measurement_target: BARD1 (Homo sapiens, UniProt Q99728)
- Sequence (Q99728 568-777 limits assumed): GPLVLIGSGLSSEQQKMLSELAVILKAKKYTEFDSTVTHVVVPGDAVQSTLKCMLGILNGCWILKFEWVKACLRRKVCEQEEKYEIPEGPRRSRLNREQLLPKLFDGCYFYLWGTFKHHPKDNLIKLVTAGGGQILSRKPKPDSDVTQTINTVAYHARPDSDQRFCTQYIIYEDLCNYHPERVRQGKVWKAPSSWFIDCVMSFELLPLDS
measured_endpoint: Kd

Q: Give the measured Kd of Nc1ncnc2c1ncn2[C@@H]1O[C@H](COP(=O)(O)OP(=O)(O)OC[C@H]2OC(O)[C@H](O)[C@@H]2O)[C@@H](O)[C@H]1O (stereo partly shown) .
A: ~250 nM
